pIC50 values for the compounds below.
Target: RARα (Homo sapiens)
Sequence (P10276 whole entry): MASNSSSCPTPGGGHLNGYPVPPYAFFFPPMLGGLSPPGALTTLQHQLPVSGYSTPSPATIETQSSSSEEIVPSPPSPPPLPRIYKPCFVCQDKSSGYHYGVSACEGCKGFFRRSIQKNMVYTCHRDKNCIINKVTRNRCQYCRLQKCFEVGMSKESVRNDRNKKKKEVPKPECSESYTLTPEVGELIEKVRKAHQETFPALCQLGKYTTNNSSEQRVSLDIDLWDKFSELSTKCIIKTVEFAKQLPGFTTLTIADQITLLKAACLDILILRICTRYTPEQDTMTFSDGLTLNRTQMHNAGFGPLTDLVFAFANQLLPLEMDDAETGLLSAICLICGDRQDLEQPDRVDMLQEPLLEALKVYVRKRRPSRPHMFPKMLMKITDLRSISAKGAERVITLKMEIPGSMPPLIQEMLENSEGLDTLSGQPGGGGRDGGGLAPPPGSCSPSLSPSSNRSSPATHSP
Experiment: co-transfection assay, antagonist activity on RARα
Conditions: CV-1 cells, in presence of known RAR agonist TTNPB; read-out: IC50 antagonist potency, RARα
pIC50: −log10 of the molar value.
attribute measured: pIC50

>>> number("CCCCCOc1c(C(C)(C)C)cc(/C(C)=C/C=C/C(C)=C/C(=O)O)cc1C(C)(C)C [Compound 9]")
8.30
>>> number("CCCOc1c(C(C)(C)C)cc(/C(C)=C/C=C/C(C)=C/C(=O)O)cc1C(C)(C)C [Compound 8]")
8.70
>>> number("C=C(c1ccccc1)c1cc(/C(C)=C/C=C/C(C)=C/C(=O)O)cc(C(C)(C)C)c1 [Compound 17]")
8.70
>>> number("CCCCOc1c(C(C)(C)C)cc(/C(C)=C/C=C/C(C)=C/C(=O)O)cc1C(C)(C)C [Compound 7]")
8.40
